Attribution: patent US20240199542A1

Kindly supply the reported Pre-emergence activity against AVEFA values for the records listed here.
Tested on: Avena fatua (AVEFA)
Experiment: Herbicidal pre-emergence action
Type: in vivo
Conditions: 1280 g/ha, graded after ca. 3 weeks
Numbers only, in %.

Example cases with answers are listed next.
CC(C)C(C)OC(=O)CC1CCC(=O)N1Cc1cccc(F)c1F (racemic) [Example I-036] : 100
CC1CC(=O)C(C(=O)CC2CCC(=O)N2Cc2cccc(F)c2F)C(=O)C1 (racemic) [Example I-180] : 90
C#CCOC(=O)CC1CCC(=O)N1Cc1cccc(F)c1F (racemic) [Example I-023] : 100
NC(=O)CC1CCC(=O)N1Cc1cccc(F)c1F (racemic) [Example I-057] : 80

Below are some compounds; for each one, tell me its Pre-emergence activity against AVEFA.
1. CCC(C)OC(=O)CC1CCC(=O)N1Cc1cccc(F)c1F (racemic) [Example I-030]
2. COC(=O)C(C(=O)CC1CCC(=O)N1Cc1cccc(F)c1F)C(=O)OC (racemic) [Example I-176]
3. CC[C@H](C)[C@H](NC(=O)CC1CCC(=O)N1Cc1cccc(F)c1F)C(=O)O (single isomer, unassigned) [Example I-005]
4. O=C(CC1CCC(=O)N1Cc1cccc(F)c1F)NCCc1ccccc1 (racemic) [Example I-061]

Response given:
1: 100; 2: 100; 3: 100; 4: 90

----------
Kindly supply the reported Post-emergence activity against ECHCG values for the records listed here.
Test system: Echinochloa crus-galli (ECHCG)
Experiment: Herbicidal post-emergence action
Assay type: in vivo
Details: 1280 g/ha, assessed after ca. 3 weeks
One number for each entry, in %.

Cn1nnnc1NC(=O)CC1CCC(=O)N1Cc1cccc(F)c1F (racemic) : 100
C=CCOC(=O)CC1CCC(=O)N1Cc1cccc(F)c1F (racemic) : 90

Below are some compounds; for each one, tell me its Post-emergence activity against ECHCG.
1. COCCOC(=O)CC1CCC(=O)N1Cc1cccc(F)c1F (racemic)
2. O=C(O)CC1CCC(=O)N1Cc1ccc(F)c(F)c1F (centres unmarked)
3. CS(=O)(=O)NC(=O)CC1CCC(=O)N1Cc1cccc(Cl)c1F (racemic)

Response given:
[100, 90, 80]

----------
System: Digitaria sanguinalis (DIGSA)
Assay: Herbicidal post-emergence action
Assay type: in vivo
Details: 320 g/ha, assessed after ca. 3 weeks
OBSERVATION_TYPE: Post-emergence activity against DIGSA (%)
Answers are plain numbers, in %.

Example cases with answers are listed next.
O=C(CC1CCC(=O)N1Cc1cccc(F)c1F)OCCOc1ccc(F)cc1 (racemic) : 90
O=C(O)CC1CCC(=O)N1Cc1cc(F)cc(F)c1F (racemic) : 90
O=C(CC1CCC(=O)N1Cc1cccc(F)c1F)NN1CCCC1 (stereo not shown) : 80
Cn1ncnc1NC(=O)CC1CCC(=O)N1Cc1cccc(F)c1F (racemic) : 80
CS(=O)(=O)CCOC(=O)CC1CCC(=O)N1Cc1cccc(F)c1F (racemic) : 80

Below are some compounds; for each one, tell me its Post-emergence activity against DIGSA.
1. COCCOC(=O)CC1CCC(=O)N1Cc1cccc(F)c1F (racemic)
2. O=C(O)CC1CCC(=O)N1Cc1cccc(Cl)c1F (racemic)
3. O=C(O)CC1CCC(=O)N1Cc1cccc(F)c1F (single isomer, unassigned)

Response given:
1. 80
2. 90
3. 80

Below are some compounds; for each one, tell me its Post-emergence activity against DIGSA.
1. O=C(O)C1CCCN1C(=O)CC1CCC(=O)N1Cc1cccc(F)c1F (racemic)
2. Cc1cccc(CN2C(=O)CCC2CC(=O)O)c1C (racemic)

Response given:
[80, 90]
